Listed here are compounds together with their documented pIC50.
Molecular target: GP IIb IIIa (Homo sapiens, UniProt P05106+P08514)
Construct: from tissue; host or cells: outdated human platelets
Sequence (P08514 32-887 limits assumed): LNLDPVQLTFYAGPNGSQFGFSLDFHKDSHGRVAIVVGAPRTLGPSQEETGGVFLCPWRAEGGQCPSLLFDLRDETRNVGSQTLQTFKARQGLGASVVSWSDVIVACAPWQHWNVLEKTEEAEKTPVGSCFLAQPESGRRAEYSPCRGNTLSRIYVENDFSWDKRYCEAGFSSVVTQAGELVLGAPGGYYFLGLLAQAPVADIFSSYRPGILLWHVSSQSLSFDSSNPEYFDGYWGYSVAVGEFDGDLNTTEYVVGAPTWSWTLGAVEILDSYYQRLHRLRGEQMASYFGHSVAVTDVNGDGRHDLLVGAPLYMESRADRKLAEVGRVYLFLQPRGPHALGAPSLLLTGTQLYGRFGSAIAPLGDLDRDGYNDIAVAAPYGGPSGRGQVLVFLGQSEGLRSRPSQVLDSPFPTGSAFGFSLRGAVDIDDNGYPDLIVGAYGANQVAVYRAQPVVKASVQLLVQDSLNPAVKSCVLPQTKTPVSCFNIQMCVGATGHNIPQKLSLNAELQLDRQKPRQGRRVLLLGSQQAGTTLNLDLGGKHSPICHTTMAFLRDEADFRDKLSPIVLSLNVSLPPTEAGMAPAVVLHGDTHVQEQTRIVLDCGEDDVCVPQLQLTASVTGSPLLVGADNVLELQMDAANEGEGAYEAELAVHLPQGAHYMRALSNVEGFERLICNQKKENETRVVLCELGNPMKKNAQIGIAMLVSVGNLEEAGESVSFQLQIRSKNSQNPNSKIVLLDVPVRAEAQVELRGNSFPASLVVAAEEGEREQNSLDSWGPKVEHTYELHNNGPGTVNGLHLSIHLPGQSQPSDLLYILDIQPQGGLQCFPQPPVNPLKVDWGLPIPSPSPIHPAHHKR
Sequence (P08514 891-1039 partner limits assumed): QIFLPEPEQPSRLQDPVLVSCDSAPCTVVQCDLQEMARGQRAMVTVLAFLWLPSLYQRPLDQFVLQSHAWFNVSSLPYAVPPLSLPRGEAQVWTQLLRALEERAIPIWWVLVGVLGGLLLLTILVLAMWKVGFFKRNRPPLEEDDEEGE
Sequence (P05106 27-788): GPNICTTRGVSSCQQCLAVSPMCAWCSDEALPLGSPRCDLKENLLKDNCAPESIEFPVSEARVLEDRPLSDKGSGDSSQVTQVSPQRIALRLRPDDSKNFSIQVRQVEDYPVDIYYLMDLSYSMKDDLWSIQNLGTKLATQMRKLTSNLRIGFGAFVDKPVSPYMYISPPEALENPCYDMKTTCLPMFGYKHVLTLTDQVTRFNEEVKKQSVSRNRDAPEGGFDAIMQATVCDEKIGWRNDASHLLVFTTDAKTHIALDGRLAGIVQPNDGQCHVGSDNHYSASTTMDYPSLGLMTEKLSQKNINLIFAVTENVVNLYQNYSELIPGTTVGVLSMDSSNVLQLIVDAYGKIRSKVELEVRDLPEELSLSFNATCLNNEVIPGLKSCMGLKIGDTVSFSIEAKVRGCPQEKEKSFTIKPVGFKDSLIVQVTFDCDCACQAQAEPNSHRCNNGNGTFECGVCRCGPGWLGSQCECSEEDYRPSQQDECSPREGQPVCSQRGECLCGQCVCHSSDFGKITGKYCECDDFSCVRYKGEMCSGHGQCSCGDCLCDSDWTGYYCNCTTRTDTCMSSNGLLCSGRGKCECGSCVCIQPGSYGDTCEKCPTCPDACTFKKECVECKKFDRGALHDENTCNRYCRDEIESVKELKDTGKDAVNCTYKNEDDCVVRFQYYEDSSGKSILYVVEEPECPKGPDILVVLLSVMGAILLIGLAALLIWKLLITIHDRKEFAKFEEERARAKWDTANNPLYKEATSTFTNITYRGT
Test: Fibrinogen-GP IIb IIIa Receptor ELISA Binding Assay (Fg/IIbIIIa)
Conditions: Example 29, Cmpd # 1-105; read-out: IC50 Fg/IIbI
Formally, pIC50 is defined as -log10 of the concentration c, with c in mol/L.

Any idea what pIC50 came out for NCCCCCCc1ccc2c(c1)C(=O)N(CCC(=O)O)CC(=O)N2Cc1ccc(Cl)cc1 on GP IIb IIIa (Homo sapiens, UniProt P05106+P08514)? 7.85

Any idea what pIC50 came out for CN1C(=O)CN(CCC(=O)O)C(=O)c2cc(C#Cc3ccc(CNC(=N)N)cc3)ccc21 on GP IIb IIIa (Homo sapiens, UniProt P05106+P08514)? 7.92

Any idea what pIC50 came out for N=C(N)NCCCCCc1ccc2c(c1)C(=O)N(CCC(=O)O)CC(=O)N2Cc1ccc(Cl)cc1 on GP IIb IIIa (Homo sapiens, UniProt P05106+P08514)? 7.96

Any idea what pIC50 came out for N=C(N)NCCCc1ccc2c(c1)C(=O)N(CCC(=O)O)CC(=O)N2 on GP IIb IIIa (Homo sapiens, UniProt P05106+P08514)? 6.15

Any idea what pIC50 came out for NCCCCC#Cc1ccc2c(c1)C(=O)N(CCC(=O)O)CC(=O)N2Cc1cccc([N+](=O)[O-])c1 on GP IIb IIIa (Homo sapiens, UniProt P05106+P08514)? 8.10

Any idea what pIC50 came out for NCCCCCCc1ccc2c(c1)C(=O)N(CCC(=O)O)CC(=O)N2Cc1ccc2ccccc2c1 on GP IIb IIIa (Homo sapiens, UniProt P05106+P08514)? 7.77

Any idea what pIC50 came out for NCCCCC#Cc1ccc2c(c1)C(=O)N(CCC(=O)O)CC(=O)N2Cc1ccc(Cl)cc1 on GP IIb IIIa (Homo sapiens, UniProt P05106+P08514)? 7.85

====

Molecular target: GP IIb IIIa (Homo sapiens, UniProt P05106+P08514)
Construct: from tissue; host or cells: outdated human platelets
Assay: Fibrinogen-GP IIb IIIa Receptor ELISA Binding Assay (Fg/IIbIIIa)
Settings: Example 29, Cmpd # 1-105; read-out: IC50 Fg/IIbI
Listed here are compounds together with their documented IC50.

Solved entries:
[
  {
    "compound": "CN1C(=O)C2CCC(CC(=O)O)N2C(=O)c2cc(CCCN)ccc21 (stereo not shown) [Cmpd 17]",
    "IC50": "> 100 µM"
  },
  {
    "compound": "CN1C(=O)C2CCC(CC(=O)O)N2C(=O)c2cc(CCCNC(=N)N)ccc21 (stereo not shown) [Cmpd 18]",
    "IC50": "> 100 µM"
  },
  {
    "compound": "CN1C(=O)C(c2ccccc2)N(CCC(=O)O)C(=O)c2cc(C#CCN)ccc21 (stereo not shown) [Cmpd 13]",
    "IC50": "> 1000 µM"
  }
]

Let us move to another entry and its IC50.
Param item = CC1C(=O)N(C)c2ccc(C#CCCN)cc2C(=O)N1CCC(=O)O (stereo not shown) [Cmpd 25] ; retrieve measured IC50. > 100 µM
